This section presents binders with their documented EC50 (read off the curve) values.
- TGT: T1, human SIRPA_V1 protein (human, UniProt P78324 31-504)
- T1 construct: Expressed on 293α cells from pcDNA3.2 V5-DEST or pFLAG V5-DEST (FLAG-tagged) vectors; also called human SIRPA Variant 1; hSIRPA V1
- ASSAY_REMARKS: cell-based ELISA on 293α cells expressing FLAG-tagged SIRPA_V1; Abs 490 normalized to FLAG tag

{"columns": ["BINDER", "EC50 (read off the curve)"],
 "data": [
  ["cF44 (IgG4p) (antibody, V domains shown, Human IgG4p (PRO mutation) constant region; also called cF44 IgG4p type) VH: EVQLVESGGGLVQPGRSLKLSCAASGFTFSNYYMAWVRQAPTKGLEWVTYITTGGGSTYFRDSVKGRFTISRDNAESTLYLQMDSLRSEDTATYYCTAANYGGSYFDYWGQGVMVTVSS VL: DVQMTQSPSNLAASPGESVSINCKASKSISKYLAWYQQKPGKANKLLIYSGSTLQSGTPSRFSGSGSGTDFTLTIRNLEPEDFGLYYCQQHNEYPPTFGAGTKLELK", "~0.05 µg/mL"],
  ["human chimeric anti-SIRPA antibody cD13 (antibody, human IgG4 S228P, kappa, F234A L235A, V domains shown, Human IgG4proFALA heavy chain, human kappa light chain; also called cD13 (IgG4pf); human chimeric antibody D13) VH: EVQLVESGGGLVQPGRSLKLSCLASGFTFSDYGMIWVRQAPGKGLEWVASISSSSSYIYYADTVKGRFTISRENAKNTLFLHMTSLRSEDTALYYCARRYYGFNYPFDYWGQGVMVTVSS VL: DTVLTQSPALAVSLGQRVTISCGASKSVRTYMHWYQQKSGQQPKLLIYSASNLEAGVPSRFSGSGSGTDFTLTIDPVEADDIANYYCQQSNEPPYTFGAGTKLELKR", "~0.08 µg/mL"],
  ["human chimeric anti-SIRPA antibody cF44 (antibody, human IgG4 S228P, kappa, F234A L235A, V domains shown, Human IgG4proFALA heavy chain, human kappa light chain; also called cF44 (IgG4pf); human chimeric antibody F44) VH: EVQLVESGGGLVQPGRSLKLSCAASGFTFSNYYMAWVRQAPTKGLEWVTYITTGGGSTYFRDSVKGRFTISRDNAESTLYLQMDSLRSEDTATYYCTAANYGGSYFDYWGQGVMVTVSS VL: DVQMTQSPSNLAASPGESVSINCKASKSISKYLAWYQQKPGKANKLLIYSGSTLQSGTPSRFSGSGSGTDFTLTIRNLEPEDFGLYYCQQHNEYPPTFGAGTKLELKR", "~0.05 µg/mL"],
  ["cF44 (IgG2) (antibody, V domains shown, Human IgG2 constant region; also called cF44 IgG2 type) VH: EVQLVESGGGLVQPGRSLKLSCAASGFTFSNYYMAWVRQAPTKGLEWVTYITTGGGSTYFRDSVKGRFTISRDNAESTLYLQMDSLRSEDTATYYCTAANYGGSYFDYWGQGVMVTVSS VL: DVQMTQSPSNLAASPGESVSINCKASKSISKYLAWYQQKPGKANKLLIYSGSTLQSGTPSRFSGSGSGTDFTLTIRNLEPEDFGLYYCQQHNEYPPTFGAGTKLELK", "~0.04 µg/mL"]
]}

Values from patent US20260098102A1
